Study the reported Ki values for UniProt Q16790 given below; they originate from different publications.
A number alone suffices; assume nM.

// below: answered molecules
CN1CCN(NC(=O)S)CC1 : 7.7
N#Cc1cccnc1-c1nccc(OCc2cn(-c3ccc(S(N)(=O)=O)cc3)nn2)n1 : 155
NCCNCCCNCCN : 48000
NS(=O)(=O)c1ccc(-c2cn([C@@H]3O[C@H](CO)[C@H](O)[C@H](O)[C@H]3O)nn2)cc1 : 120
NS(=O)(=O)Oc1ccc(NC(=O)Nc2ccc(Cc3ccccc3)cc2)cc1 : 16

# Ki of CC(C)C[C@H](NC(=O)[C@H](Cc1ccccc1)NC(=O)c1cnccn1)B(O)O = 3380

# Ki of NS(=O)(=O)c1ccc(NCCC(=O)c2ccccc2)cc1 = 51.5

# Ki of N#Cc1ccc(CN2C(=O)c3ccccc3S2(=O)=O)cc1 = 240

# Ki of NS(=O)(=O)c1ccc2c(c1)S(=O)(=O)NC2=O = 113

# Ki of Cc1cn([C@H]2C[C@@H](n3cc(COc4ccc(S(N)(=O)=O)cc4)nn3)[C@@H](CO)O2)c(=O)[nH]c1=O = 62

# Ki of NS(=O)(=O)c1ccc2nc(-n3cc(/C=N/O)c(-c4ccc(Cl)cc4)n3)sc2c1 = 152

# Ki of CC1=NNC(=O)/C1=N/Nc1cccc(S(N)(=O)=O)c1 = 22.9

# Ki of NS(=O)(=O)c1cccc(/N=C/c2ccccc2/C=N/c2cccc(S(N)(=O)=O)c2)c1 = 89.6

# Ki of NS(=O)(=O)c1ccc(N2C(=O)c3cccc4cc([N+](=O)[O-])cc(c34)C2=O)cc1 = 218

# Ki of O=S1(=O)C=Cc2cc(-n3cc(-c4ccc(OC(F)(F)F)cc4)nn3)ccc2O1 = 74

# Ki of CCC(C)NCC(O)COc1ccc(C(=O)NCCc2ccc(S(N)(=O)=O)cc2)cc1 (stereo unspecified) = 53.6
